B1: glmS ribozyme (parent)
chain: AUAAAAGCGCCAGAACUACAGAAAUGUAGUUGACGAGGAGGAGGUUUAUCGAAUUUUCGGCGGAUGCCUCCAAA

# Variants of: B1
# protocolDetails: self-cleavage kobs at 10000 uM GlcN6P; higher = faster cleavage; RNA array
# recordedConditions: with glucosamine-6-phosphate
Variants at the floor of the assay were thinned out.
metricName: self-cleavage kobs at 10000 uM GlcN6P

[[record]]
mutantname = "C11A A64G"
endpointvalue = "0.000147 s⁻¹"

[[record]]
mutantname = "A36G G63A"
endpointvalue = "< 1e-05 s⁻¹"

[[record]]
mutantname = "A48U G59C"
endpointvalue = "< 1e-05 s⁻¹"

[[record]]
mutantname = "A48G C70U"
endpointvalue = "0.000192 s⁻¹"

[[record]]
mutantname = "C8A A53G"
endpointvalue = "< 1e-05 s⁻¹"

[[record]]
mutantname = "U31A C58G"
endpointvalue = "0.00013 s⁻¹"


Identify measured self-cleavage kobs at 10000 uM GlcN6P corresponding to A39U G60A U65G
< 1e-05 s⁻¹

Give the value of self-cleavage kobs at 10000 uM GlcN6P reported for the following: `A33C`
0.000395 s⁻¹

Read off the recorded self-cleavage kobs at 10000 uM GlcN6P for A36G G43U
< 1e-05 s⁻¹

Look up self-cleavage kobs at 10000 uM GlcN6P of G7U U45G and report it.
< 1e-05 s⁻¹

Read off the recorded self-cleavage kobs at 10000 uM GlcN6P for C11A A15C C50G
4.96e-05 s⁻¹
